- system-tested: T1, 4H4033-AA
- T1 chain: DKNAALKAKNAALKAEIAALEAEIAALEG
- protocol-summary: two-hybrid library CCmax;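 further: natural log of median RNA to DNA barcode read ratio; higher means stronger binding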
- condition-summary: mean of both orientations
recorded-endpoint: interaction score

I = DKNAALKAKIAALKAENAALEAEIAALKG [4H3922-AA]
II = DKNAALKAEIAALEAENAALEAKIAALEG [4H3605-AA]
III = DKIAALKAENAALEAKIAALEAKIAALKG [4H2726-AA]
IV = DKIAALEAENAALEAKNAALKAKIAALKG [4H2238-AA]
// rank the listed binders by interaction score, lowest value first Provide your answer as the labels ordered per the instruction.
II, I, IV, III
(II: -1.31, I: -0.495, IV: 1.31, III: 2.08)
